- Species on record: Sus scrofa
- PROTOCOL_SUMMARY: Competitive inhibition of porcine tubulin alpha/beta at 10 to 100 uM preincubated 30 mins followed by addition of N-(2-(3-(But-3-yn-1-yl)-3H-diazirin-3-yl)ethyl)-5-(2-(phenoxymethyl)-3H-imidazo[4,5-b]pyridin-6-yl)thiophene-3-carboxamide and measured after 15 mins by SDS-PAGE based fluorescence assay
Active and inactive are the calls of the source. No cut-off for these calls is given here.
Possible outcomes: active, inactive

{"CHEM_SMILES": "CC(=O)O[C@H]1C(=O)[C@@]2(C)[C@H]([C@H](OC(=O)c3ccccc3)[C@]3(O)C[C@H](OC(=O)[C@H](O)[C@@H](NC(=O)c4ccccc4)c4ccccc4)C(C)=C1C3(C)C)[C@]1(OC(C)=O)CO[C@@H]1C[C@@H]2O", "LABEL": "inactive"}
{"CHEM_SMILES": "CC[C@]1(O)C[C@@H]2CN(CCc3c([nH]c4ccccc34)[C@@](C(=O)OC)(c3cc4c(cc3OC)N(C)[C@H]3[C@@](O)(C(=O)OC)[C@H](OC(C)=O)[C@]5(CC)C=CCN6CC[C@]43[C@@H]65)C2)C1", "LABEL": "inactive"}
{"CHEM_SMILES": "c1ccc(OCc2nc3cc(-c4cccs4)cnc3[nH]2)cc1", "LABEL": "active"}
{"CHEM_SMILES": "COc1cc2c(c(OC)c1OC)-c1ccc(OC)c(=O)cc1[C@@H](NC(C)=O)CC2", "LABEL": "active"}
{"CHEM_SMILES": "COC(=O)Nc1nc2cc(C(=O)c3cccs3)ccc2[nH]1", "LABEL": "active"}
